target: Glycogen synthase kinase-3 beta (Homo sapiens); experiment: concentration-response blocking of human GSK3B – biochemical, luminescence, cell-free homogeneous, retest, dose response (AID 434954)
Sequence (P49841 whole entry): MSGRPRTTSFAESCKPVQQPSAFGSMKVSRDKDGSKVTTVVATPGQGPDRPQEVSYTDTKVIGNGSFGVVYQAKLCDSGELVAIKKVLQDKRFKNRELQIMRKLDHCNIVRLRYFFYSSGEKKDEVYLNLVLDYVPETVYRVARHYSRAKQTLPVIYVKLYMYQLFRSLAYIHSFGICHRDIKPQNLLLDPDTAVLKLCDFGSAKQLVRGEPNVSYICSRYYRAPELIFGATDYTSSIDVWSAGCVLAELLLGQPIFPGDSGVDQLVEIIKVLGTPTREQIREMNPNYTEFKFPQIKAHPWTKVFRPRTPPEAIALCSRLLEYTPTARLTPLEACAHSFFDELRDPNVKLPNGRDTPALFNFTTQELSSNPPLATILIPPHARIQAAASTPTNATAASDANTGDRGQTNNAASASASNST
pEC50: −log10 of the molar value.
# pEC50 listing for each entry below

compound | pEC50
O=C(OCc1ccc(COC(=O)c2ccc(O)cc2)cc1)c1ccc(O)cc1 | < 3.52
COCCN(CC(=O)NCc1ccccc1)C(=O)CCC(=O)Nc1ccccn1 | < 3.52
CC1(C)CC(=O)C2C(=Nc3ncnn3C2c2cccs2)C1 (configuration not stated) | 4.24
Nc1nonc1-n1nnc(C(=O)NN=Cc2ccccc2F)c1-c1cccs1 | 4.84
COc1cc(NC2=CC(=O)CC(C)(C)C2)cc(OC)c1OC | < 3.52
O=C(O)c1ccccc1Nc1ccc(OC(F)F)cc1 | < 3.52
Cc1ccccc1NC(=O)CSc1nc(N)c(C#N)c(-c2cccs2)c1C#N | < 3.52
c1ccc(CCCCNCC2COc3ccccc3O2)cc1 (configuration not stated) | < 3.52
Cc1cccc(C(=O)NC2CC3CCCC(C2)N3Cc2ccccc2)c1 (configuration not stated) | < 3.52
COc1ccc(-c2nc(-c3ccccc3)[nH]c(=O)c2C#N)cc1 | < 3.52
Cc1ccc(C(=O)N/N=C/c2ccc(-c3ccc([N+](=O)[O-])cc3)o2)cn1 | < 3.52
COc1ccc(-c2ccc3c(N)c(C(=O)c4cccc(OC)c4)sc3n2)cc1 | < 3.52
O=C(Nc1ccc2c(c1)OCO2)Nc1ccc(F)cc1F | < 3.52
CC1=C(C#N)C(=O)NC(=O)C1=NNc1cccc(C)c1 | 6.11
COc1ccc(C(=O)c2sc(Nc3ccc(NC(C)=O)cc3)nc2C)cc1 | < 3.52
COc1ccc2oc(C)c(C(=O)c3ccc(C)cc3)c2c1 | < 3.52
Cc1nnc2n(-c3ccccc3)c(=O)c3c4c(sc3n12)CC(C)CC4 (configuration not stated) | < 3.52
COc1ccc(CC(=O)N2C[C@H]3C[C@@H](C2)c2cccc(=O)n2C3)cc1 | < 3.52
COc1ccc(NC(=O)c2sc(S)nc2N)cc1 | < 3.52
COc1ccc(-n2c(=O)c3c4c(sc3n3c(S)nnc23)CCCC4)cc1 | < 3.52
COc1ccc(C(=O)Nc2ccc([N+](=O)[O-])cn2)cc1OC | < 3.52
COc1ccc(C)cc1S(=O)(=O)Nc1cc2c3c(c1)CCN3C(=O)CC2 | < 3.52
CCCN(CCC)Cc1c(C(=O)NN=Cc2ccc(Br)cc2)nnn1-c1nonc1N | < 3.52
CC(C)Cn1nc(NC(=O)C(C)(C)C)c2cc3ccccc3nc21 | 4.15
O=C(Nc1ncc([N+](=O)[O-])s1)c1ccco1 | < 3.52
O=NCc1cn(-c2ccccc2)nc1-c1ccc2c(c1)OCCO2 | 4.23
Cc1cccc(Nc2nc(NCCCN3CCOCC3)nc(N)c2[N+](=O)[O-])c1 | 5.76
CN1CCN(CCC2Oc3cc([N+](=O)[O-])ccc3NC2=O)CC1 (configuration not stated) | < 3.52
O=C(NCC(c1ccco1)N1CCc2ccccc21)c1c(F)cccc1F (configuration not stated) | < 3.52
CCCC1=Nc2ncnn2C(c2ccco2)C1C(=O)OCC (configuration not stated) | 4.76
Cc1c(C(=O)OCc2ccccc2)nnn1-c1nonc1N | 5.13
COc1ccc(C2=NOC(C(=O)Nc3cccnc3)C2)cc1 (configuration not stated) | < 3.52
Cc1ccc(S(=O)(=O)N2CN(Cc3ccco3)c3nc4ccccc4nc32)cc1 | < 3.52
COc1ccc(-c2cc(-c3ccco3)nc(O)c2C#N)cc1 | < 3.52
CC(C)N(C(=O)Cc1ccccc1[N+](=O)[O-])C(C)C | < 3.52
CCSc1nc(-c2ccccc2)c(C#N)c(=O)[nH]1 | < 3.52
CC(C)N1CCc2c(sc(NC(=O)CCc3ccccc3)c2C(N)=O)C1 | < 3.52
O=C(Nc1cccc(Cl)c1)Nc1ccnc(-c2cccnc2)n1 | < 3.52
NS(=O)(=O)c1cc(C(=O)NNC2=c3ccccc3=NC2=O)ccc1Cl | 4.36
CCSc1nc(N)nc(-c2cccs2)c1C#N | < 3.52
COc1ccc(-c2nn(-c3ccccc3)cc2CO)cc1 | < 3.52
c1ccc2c(Nc3nc(-c4ccncc4)nc4ccccc34)cccc2c1 | < 3.52
